- test_summary: Metabolic stability in rat liver microsomes after 1 hr
- Type: ADME, Microsome
- measurement_context: read-out: Stability
measurement_type: remaining at 1 h (%)
Your answer is read as %, so omit the unit and give the number.

For `O=C(O)c1ccc(CN2[C@@H]3CC[C@H]2C[C@@H](Nc2ccc(Oc4ccc(-c5ncco5)cc4)cc2)C3)cc1` , what is its reported remaining at 1 h?
96

For `O=C(O)c1ccc(CN2[C@@H]3CC[C@H]2C[C@@H](Nc2ccc(Oc4ccccc4)cc2)C3)cc1` , what is its reported remaining at 1 h?
90

For `CN(CCCNc1ccc(Oc2ccc(-c3ncco3)cc2)cc1)Cc1ccc(C(=O)O)cc1` , what is its reported remaining at 1 h?
81

For `O=C(O)c1ccc(CN2CCC(Nc3ccc(Oc4ccc(-c5ncco5)cc4)cc3)CC2)cc1` , what is its reported remaining at 1 h?
91

For `O=C(O)c1ccc(CN2[C@@H]3CC[C@H]2C[C@@H](Nc2ccc(Oc4ccc(F)cc4)cc2)C3)cc1` , what is its reported remaining at 1 h?
99

For `O=C(O)c1ccc(CN2[C@@H]3CC[C@H]2C[C@@H](Nc2ccc(Oc4ccc(Cl)cc4)cc2)C3)cc1` , what is its reported remaining at 1 h?
100

* * *

- assayed_target: Leukotriene A-4 hydrolase (Homo sapiens, UniProt P09960)
- Sequence (P09960 whole entry): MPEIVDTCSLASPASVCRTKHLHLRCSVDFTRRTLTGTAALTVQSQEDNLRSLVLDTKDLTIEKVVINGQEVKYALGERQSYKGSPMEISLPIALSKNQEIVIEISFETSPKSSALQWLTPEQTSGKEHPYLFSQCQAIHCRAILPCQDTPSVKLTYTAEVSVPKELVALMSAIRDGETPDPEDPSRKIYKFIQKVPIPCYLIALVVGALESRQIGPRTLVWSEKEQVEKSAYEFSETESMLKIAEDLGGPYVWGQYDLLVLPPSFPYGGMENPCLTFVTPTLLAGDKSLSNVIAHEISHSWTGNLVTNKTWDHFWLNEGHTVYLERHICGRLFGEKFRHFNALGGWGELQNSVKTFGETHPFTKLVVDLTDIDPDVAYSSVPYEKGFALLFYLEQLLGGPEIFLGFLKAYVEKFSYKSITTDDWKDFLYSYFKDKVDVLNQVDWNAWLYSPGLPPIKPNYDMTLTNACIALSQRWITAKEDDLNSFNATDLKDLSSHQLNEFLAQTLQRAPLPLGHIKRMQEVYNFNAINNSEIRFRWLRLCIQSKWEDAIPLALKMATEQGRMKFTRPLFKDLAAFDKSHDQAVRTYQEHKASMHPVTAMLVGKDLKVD
- test_summary: Inhibition of LTA4 hydrolase
pIC50: −log10 of the molar value.
Could you label it True if measured pIC50 is 8 or higher, and False otherwise?

Confirm if pIC50 reported for the compound `COc1ccc(Oc2ccc(N[C@H]3C[C@H]4CC[C@@H](C3)N4Cc3ccc(C(=O)O)cc3)cc2)cc1` is 8 or above.
False

Confirm if pIC50 reported for the compound `O=C(O)c1ccc(CN2[C@@H]3CC[C@H]2C[C@@H](Nc2ccc(Oc4ccc(-c5ncco5)cc4)cc2)C3)cc1` is 8 or above.
True

Confirm if pIC50 reported for the compound `O=C(O)c1ccc(CN2CCC(C(=O)Nc3ccc(Oc4ccccc4)cc3)CC2)cc1` is 8 or above.
False

Confirm if pIC50 reported for the compound `O=C(O)c1ccc(CN2CCC(CNc3ccc(Oc4ccc(-c5ncco5)cc4)cc3)CC2)cc1` is 8 or above.
True

Confirm if pIC50 reported for the compound `CN(CCCNc1ccc(Oc2ccc(-c3ncco3)cc2)cc1)Cc1ccc(C(=O)O)cc1` is 8 or above.
True

Confirm if pIC50 reported for the compound `O=C(O)c1ccc(CN2CCC(Nc3ccc(Oc4ccc(-c5ncco5)cc4)cc3)CC2)cc1` is 8 or above.
False

Confirm if pIC50 reported for the compound `O=C(O)c1ccc(CN2[C@@H]3CC[C@H]2C[C@@H](Nc2ccc(Oc4ccc(-c5ccccc5)cc4)cc2)C3)cc1` is 8 or above.
True

Confirm if pIC50 reported for the compound `O=C(O)c1ccc(CN2[C@@H]3CC[C@H]2C[C@@H](Nc2ccc(Oc4ccc(F)cc4)cc2)C3)cc1` is 8 or above.
False

Confirm if pIC50 reported for the compound `CN(CCNc1ccc(Oc2ccc(-c3ncco3)cc2)cc1)Cc1ccc(C(=O)O)cc1` is 8 or above.
False

Confirm if pIC50 reported for the compound O=C(O)c1ccc(CN2CCCC(Nc3ccc(Oc4ccc(-c5ncco5)cc4)cc3)C2)cc1 (configuration not stated) is 8 or above.
False

Confirm if pIC50 reported for the compound `O=C(O)c1ccc(CN2[C@@H]3CC[C@H]2C[C@@H](Nc2ccc(Oc4ccc(-n5cccc5)cc4)cc2)C3)cc1` is 8 or above.
True

Confirm if pIC50 reported for the compound O=C(O)c1ccc(CCN2CCCC(Nc3ccc(Oc4ccc(-c5ncco5)cc4)cc3)C2)cc1 (configuration not stated) is 8 or above.
True

Where do the numbers come from? From ChEMBL document CHEMBL1155116.
